# Tested on: L. mexicana Cas9 promastigotes
# EXPERIMENT NOTES: Alamar blue drug sensitivity assay, L. mexicana Cas9 promastigotes
# Assay type: cell-based, Leishmania mexicana
# MEASUREMENT CONTEXT: Leishmania mexicana, 120 h, 72 h + 48 h resazurin, at least 3 independent determinations, read-out: EC50 (µM) AVG ± SEM, Cas9
REPORTED PROPERTY: EC50

COMPOUND	TARGET UNDER TEST	ASSAY RESULT
Nc1ncnc2c1ccn2[C@@H]1O[C@H](CO)[C@@H](O)[C@H]1O [Tubercidin, tubercidin]	L. mexicana Cas9 promastigotes	0.43 µM
N=C(N)c1ccc(OCCCCCOc2ccc(C(=N)N)cc2)cc1 [Pentamidine]	L. mexicana Cas9 promastigotes	0.87 µM
Nc1ncnc2c1cnn2[C@@H]1O[C@H](CO)[C@@H](O)[C@H]1O [JBMAM030, aminopurinol riboside]	L. mexicana Cas9 promastigotes	7.81 µM
Nc1ncnc2c1c(-c1ccc(Cl)cc1)nn2[C@@H]1O[C@H](CO)[C@@H](O)[C@H]1O [JB602]	L. mexicana Cas9 promastigotes	> 500 µM
